Ki for assorted molecules
# subject.of.test: Organic anion transporter 3 (Rattus norvegicus)
# Sequence (Q9R1U7 whole entry): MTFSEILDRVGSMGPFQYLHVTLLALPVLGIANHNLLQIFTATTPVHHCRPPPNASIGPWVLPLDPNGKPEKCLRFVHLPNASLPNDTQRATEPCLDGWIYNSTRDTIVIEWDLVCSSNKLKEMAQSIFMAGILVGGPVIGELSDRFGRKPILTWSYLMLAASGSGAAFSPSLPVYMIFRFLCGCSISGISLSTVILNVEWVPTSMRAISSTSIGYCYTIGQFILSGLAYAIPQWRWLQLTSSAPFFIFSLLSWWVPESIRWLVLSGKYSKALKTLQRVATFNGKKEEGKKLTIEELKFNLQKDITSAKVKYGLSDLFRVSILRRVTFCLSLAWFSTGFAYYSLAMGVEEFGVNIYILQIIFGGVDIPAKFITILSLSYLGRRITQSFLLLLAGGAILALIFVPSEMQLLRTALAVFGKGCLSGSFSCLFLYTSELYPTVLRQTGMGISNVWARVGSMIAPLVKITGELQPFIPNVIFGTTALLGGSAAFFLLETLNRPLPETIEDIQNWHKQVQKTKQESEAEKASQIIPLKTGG
# measurement.description: TP_TRANSPORTER: inhibition of PCG uptake in Oat3-expressing LLC-PK1 cells
# Format: functional, cell-based

- molecule: "CCCN(CCC)S(=O)(=O)c1ccc(C(=O)O)cc1 [PROBENECID]"
  Ki / µM: 4.43
- molecule: "Nc1ccc(C(=O)NCC(=O)O)cc1 [AMINOHIPPURIC ACID]"
  Ki / µM: 398
- molecule: "C[C@]12CC[C@@H]3c4ccc(O)cc4CC[C@H]3[C@@H]1CC[C@@H]2O[C@@H]1O[C@H](C(=O)O)[C@@H](O)[C@H](O)[C@H]1O [ESTRADIOL 17B GLUCURONIDE]"
  Ki / µM: 35.6

Source: ChEMBL document CHEMBL2074102
